- Test system: K4 kissing-loop RNA reporter
- assay: apparent KD of K4 kissing-loop reporter; higher = weaker reporter binding
- condition context: Eterna round: R107; input ligand: theophylline 20 uM
Assign apparent KD of K4 kissing-loop reporter to each entry below.
Write it as a number; the unit nM goes unstated.

Given item GGUGUUGUUUGUGCUGUUUUCCUCGUUUCUCGAGGACCGGUACGGCCGCCACUCGAGUGAUGUUUGGGUAGCGAUCCUUGUUAGU [Bdazzled - #6 Exc. Tryptophan A] , the value recorded as its apparent KD of K4 kissing-loop reporter is 272

Noted for UCUCAAGCACAGUGAUGUUGUGCUUGGGAAGGAGCGCGUGGGAACGCAGGUAGGUCGCCCGGUAAAUCGCGUCAAUGCUAGAGGC [Arg A Ex t5] : its apparent KD of K4 kissing-loop reporter reads 100

In plain terms, UGCACGGGCUCGGCCGCCACUCCCGCGGGUCGGAAGGUCCGCUACUGAGUGAUGUUCGGUUGGAGGAGGACCGGGAGCCCGUGCA [#2 Exclusion - Tryptophan B Attempt #26 (HarryS)] has a documented apparent KD of K4 kissing-loop reporter of 104

// ACUAAGGUUUUUGGAGCAGUGAUGUUGCUCCGAGGACCGGUACGGCCGCCACUCGGUGCAUGUAUGCGCUUCACUCCGGAAGUUG [Bieron] : apparent KD of K4 kissing-loop reporter value = 148

Please fill in: apparent KD of K4 kissing-loop reporter reported for CCGAAGAACCAGUGAUGUUGGUUGACUAGACAGGAUAUGAGCAACAUCAGAAGGGUCUGGCUUCGGGAGUAGGUCGCGCUGACCC [Diarrebi] = 1260

// sample GCGCGUCAUGUCAGCGGUGACUACGUCGAUACCAGCAGGGAAACCUGCCCUUGGCAGCGACGCGCUGGAGUGAUGUUCCGACGGA [#2 Exclusion - Theophylline A Attempt #6 (HarryS)] , its apparent KD of K4 kissing-loop reporter was 854

* * *

- Test system: K4 kissing-loop RNA reporter;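 also: bound reporter read as fluorescence of individual clusters on recovered sequencing chips by microscopy, with normalized cluster intensities fitted with a binding model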
- assay: apparent KD of K4 kissing-loop reporter; higher = weaker reporter binding
- condition context: Eterna round: R107; input ligand: arginine 13.2 mM
Label 1.0 for high-side apparent KD of K4 kissing-loop reporter (at or above 300 nM) and 0.0 for low-side apparent KD of K4 kissing-loop reporter (below it).

Lookup: Could you verify whether the entry AGUAGAGCAUCAGAUACCAGACAGAACUGAUGGUAAGGAGUGAUGUUCCUUAAUCAGCUUGUCCCUUGGCAGCUGAUAGUAGUCA [#14 K4 Theophylline B Same State] shows apparent KD of K4 kissing-loop reporter of no less than 300 nM?
Found: 1.0

Lookup: Is reported apparent KD of K4 kissing-loop reporter greater than or equal to 300 nM here: AAAUUUUAAAGUGAUACCAGACAUCUCUAUUACAUUAAUAUAGCUAAGUGAUGUUUAGCAGUCCCUUGGCAGCACAAUUUAAUUA [JR_SSTheophyB_Sub012]
Found: 1.0

Lookup: Dear colleague, could you confirm whether UAACUUGCAGUGAUGUUGCAAGAACUGGAUACCAGCAUGGAAACAUGCCCUUGGCAGCCAGAAGCUGGCUGACUGCAAGGUCAGC [Design4] has apparent KD of K4 kissing-loop reporter at or above 300 nM?
Found: 0.0

Lookup: Hi team, for GCCGUAGAUGGAAGGAGCGUGUCAAAGUGAUGUUUUGAUUAACUCCCUAAGGGAUAGAUGACACAGGUAGGUCGCCAUCUACGGC , is the recorded apparent KD of K4 kissing-loop reporter at or above 300 nM?
Found: 0.0

Lookup: Item CCAUCGCUAUUCGAUACCAGCUACUUAGUGAUGUUAAGUUUAUAUCCACUGUAGGUGGAAAGCCCUUGGCAGCGAAUAGUGAUGG [Theophylline B K4 25] with apparent KD of K4 kissing-loop reporter of 300 nM or above?
Found: 1.0
